Data origin, for the record: paper PMC6839509

This section presents substances with their documented kcat/KM Cat B values.
target: human recombinant cathepsin B (Homo sapiens); construct: made in house; test: Substrate hydrolysis kinetics (kcat, KM, kcat/KM) of ACC-labeled substrates; type: biochemical; details: cathepsin B 0.3–0.5 nM; 100 mM sodium acetate, 100 mM NaCl, 10 mM DTT, 1 mM EDTA, pH 5.5, 37 °C; Michaelis–Menten; average of at least triplicate, S.D. below 15%
Square brackets hold non-standard residues; d marks the D form. * marks the point of attachment. Phe(4-Cl) = N[C@@H](Cc1ccc(Cl)cc1)C(=O)O; ACC = NC(=O)Cc1cc(=O)oc2cc(N*)ccc12; hTyr = N[C@@H](CCc1ccc(O)cc1)C(=O)O; hPhe = N[C@@H](CCc1ccccc1)C(=O)O; Cha = N[C@@H](CC1CCCCC1)C(=O)O; hLeu = CC(C)CC[C@H](N)C(=O)O; hSer = N[C@@H](CCO)C(=O)O; Nle = CCCC[C@H](N)C(=O)O; Nva = CCC[C@H](N)C(=O)O; OBn = c1ccc(CO*)cc1; Bn = c1ccc(C*)cc1

Some solved entries appear below for comparison.
SUBSTANCE: Ac-[hTyr]LE(OBn)R-{ACC} (SMILES CC(=O)N[C@@H](CCc1ccc(O)cc1)C(=O)N[C@@H](CC(C)C)C(=O)N[C@@H](CCC(=O)OCc1ccccc1)C(=O)N[C@@H](CCCNC(=N)N)C(=O)Nc1ccc2c(CC(N)=O)cc(=O)oc2c1) [ACC-labeled tetrapeptide substrate]
kcat/KM Cat B: 2,760,000 M^-1s^-1

SUBSTANCE: Ac-[Nva][Cha]E(OBn)R-{ACC} (SMILES CCC[C@H](NC(C)=O)C(=O)N[C@@H](CC1CCCCC1)C(=O)N[C@@H](CCC(=O)OCc1ccccc1)C(=O)N[C@@H](CCCNC(=N)N)C(=O)Nc1ccc2c(CC(N)=O)cc(=O)oc2c1) [ACC-labeled tetrapeptide substrate]
kcat/KM Cat B: 4,090,000 M^-1s^-1

SUBSTANCE: Ac-[Cha]LE(OBn)R-{ACC} (SMILES CC(=O)N[C@@H](CC1CCCCC1)C(=O)N[C@@H](CC(C)C)C(=O)N[C@@H](CCC(=O)OCc1ccccc1)C(=O)N[C@@H](CCCNC(=N)N)C(=O)Nc1ccc2c(CC(N)=O)cc(=O)oc2c1)
kcat/KM Cat B: 3,100,000 M^-1s^-1

SUBSTANCE: Ac-[Cha]L[hSer](Bn)R-{ACC} (SMILES CC(=O)N[C@@H](CC1CCCCC1)C(=O)N[C@@H](CC(C)C)C(=O)N[C@@H](CCOCc1ccccc1)C(=O)N[C@@H](CCCNC(=N)N)C(=O)Nc1ccc2c(CC(N)=O)cc(=O)oc2c1) [ACC-labeled tetrapeptide substrate]
kcat/KM Cat B: 4,300,000 M^-1s^-1

SUBSTANCE: Ac-[hPhe]LE(OBn)R-{ACC} (SMILES CC(=O)N[C@@H](CCc1ccccc1)C(=O)N[C@@H](CC(C)C)C(=O)N[C@@H](CCC(=O)OCc1ccccc1)C(=O)N[C@@H](CCCNC(=N)N)C(=O)Nc1ccc2c(CC(N)=O)cc(=O)oc2c1) [ACC-labeled tetrapeptide substrate]
kcat/KM Cat B: 2,100,000 M^-1s^-1

get_value(item= Ac-[hLeu][Nle]E(OBn)R-{ACC} (SMILES CCCC[C@H](NC(=O)[C@H](CCC(C)C)NC(C)=O)C(=O)N[C@@H](CCC(=O)OCc1ccccc1)C(=O)N[C@@H](CCCNC(=N)N)C(=O)Nc1ccc2c(CC(N)=O)cc(=O)oc2c1) [ACC-labeled tetrapeptide substrate] , readout=kcat/KM Cat B) returns 3,450,000 M^-1s^-1

get_value(item= Ac-[Phe(4-Cl)]L[hSer](Bn)R-{ACC} (SMILES CC(=O)N[C@@H](Cc1ccc(Cl)cc1)C(=O)N[C@@H](CC(C)C)C(=O)N[C@@H](CCOCc1ccccc1)C(=O)N[C@@H](CCCNC(=N)N)C(=O)Nc1ccc2c(CC(N)=O)cc(=O)oc2c1) [ACC-labeled tetrapeptide substrate] , readout=kcat/KM Cat B) returns 3,780,000 M^-1s^-1
